Data origin: ChEMBL document CHEMBL1153591

Histone deacetylase 5 (Homo sapiens, UniProt Q9UQL6): reported IC50 for various compounds.
Sequence (Q9UQL6 whole entry): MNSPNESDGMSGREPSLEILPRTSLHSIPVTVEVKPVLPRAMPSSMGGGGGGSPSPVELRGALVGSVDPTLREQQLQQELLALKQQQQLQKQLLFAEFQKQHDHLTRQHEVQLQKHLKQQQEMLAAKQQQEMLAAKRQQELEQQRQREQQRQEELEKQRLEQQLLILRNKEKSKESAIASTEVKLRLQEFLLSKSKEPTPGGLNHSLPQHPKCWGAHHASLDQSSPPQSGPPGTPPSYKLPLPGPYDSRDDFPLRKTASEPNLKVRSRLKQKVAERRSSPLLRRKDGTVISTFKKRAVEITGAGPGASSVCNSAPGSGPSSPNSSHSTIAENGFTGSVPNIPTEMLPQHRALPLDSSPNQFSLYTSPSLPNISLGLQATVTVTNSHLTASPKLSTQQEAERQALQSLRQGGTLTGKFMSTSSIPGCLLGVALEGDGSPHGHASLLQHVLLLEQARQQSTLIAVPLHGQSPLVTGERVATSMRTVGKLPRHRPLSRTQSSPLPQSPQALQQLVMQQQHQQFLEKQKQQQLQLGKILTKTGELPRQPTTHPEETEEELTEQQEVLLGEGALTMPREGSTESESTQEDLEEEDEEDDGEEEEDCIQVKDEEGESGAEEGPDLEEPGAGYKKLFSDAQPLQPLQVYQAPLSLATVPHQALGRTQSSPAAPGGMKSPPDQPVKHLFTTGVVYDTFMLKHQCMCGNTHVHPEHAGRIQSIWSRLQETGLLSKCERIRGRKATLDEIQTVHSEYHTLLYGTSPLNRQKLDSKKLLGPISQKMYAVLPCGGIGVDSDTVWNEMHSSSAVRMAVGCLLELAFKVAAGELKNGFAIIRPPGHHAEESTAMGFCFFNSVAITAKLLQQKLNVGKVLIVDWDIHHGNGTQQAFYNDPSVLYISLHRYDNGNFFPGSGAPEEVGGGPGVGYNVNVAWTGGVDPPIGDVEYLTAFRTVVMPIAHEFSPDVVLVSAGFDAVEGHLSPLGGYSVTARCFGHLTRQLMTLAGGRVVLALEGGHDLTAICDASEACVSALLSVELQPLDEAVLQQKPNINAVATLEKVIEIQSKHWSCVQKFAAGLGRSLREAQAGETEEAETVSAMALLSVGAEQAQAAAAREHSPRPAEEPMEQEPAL
outcome measure: IC50 (nM)

[[record]]
smiles_data = "O=C(CCCCCC(c1c[nH]c2ccccc12)c1c[nH]c2ccccc12)NO"
unit_abbreviation = "nM"
recorded_result = 590

[[record]]
smiles_data = "O=C(CCCCCC(c1c[nH]c2ccc([N+](=O)[O-])cc12)c1c[nH]c2ccc([N+](=O)[O-])cc12)NO"
unit_abbreviation = "nM"
recorded_result = 140

[[record]]
smiles_data = "O=C(/C=C/c1ccc(C(c2c[nH]c3ccccc23)c2c[nH]c3ccccc23)cc1)NO"
unit_abbreviation = "nM"
recorded_result = 4900


====

pIC50: −log10 of the molar value.
Reported pIC50 for target or system UniProt:Q92769, by entry.
Sequence (Q92769 whole entry): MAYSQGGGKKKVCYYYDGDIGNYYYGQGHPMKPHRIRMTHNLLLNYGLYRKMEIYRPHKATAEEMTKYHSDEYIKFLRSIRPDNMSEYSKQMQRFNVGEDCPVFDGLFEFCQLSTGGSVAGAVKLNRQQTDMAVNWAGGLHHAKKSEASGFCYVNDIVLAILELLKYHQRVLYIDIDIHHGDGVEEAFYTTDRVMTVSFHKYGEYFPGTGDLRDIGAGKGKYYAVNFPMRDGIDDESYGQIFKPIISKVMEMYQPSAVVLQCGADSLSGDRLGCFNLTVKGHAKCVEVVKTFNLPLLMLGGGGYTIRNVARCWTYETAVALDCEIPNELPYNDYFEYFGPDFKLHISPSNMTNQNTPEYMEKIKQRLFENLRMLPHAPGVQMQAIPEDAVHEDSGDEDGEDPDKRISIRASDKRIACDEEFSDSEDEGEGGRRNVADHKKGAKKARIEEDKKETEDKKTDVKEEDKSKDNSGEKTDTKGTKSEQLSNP
outcome measure: pIC50

[[record]]
smiles_data = "O=C(/C=C/c1ccc(C(c2c[nH]c3ccccc23)c2c[nH]c3ccccc23)cc1)NO"
outcome_measure = "pIC50"
recorded_result = 5.41

[[record]]
smiles_data = "COc1cccc2c(C(CCCCCC(=O)NO)c3c[nH]c4c(OC)cccc34)c[nH]c12"
outcome_measure = "pIC50"
recorded_result = 6.36

[[record]]
smiles_data = "O=C(CCCCCC(c1c[nH]c2ccc([N+](=O)[O-])cc12)c1c[nH]c2ccc([N+](=O)[O-])cc12)NO"
outcome_measure = "pIC50"
recorded_result = 6.23


====

Quick reference for pIC50 among some compounds
Target: Histone deacetylase 8 (Homo sapiens, UniProt Q9BY41)
Sequence (Q9BY41 whole entry): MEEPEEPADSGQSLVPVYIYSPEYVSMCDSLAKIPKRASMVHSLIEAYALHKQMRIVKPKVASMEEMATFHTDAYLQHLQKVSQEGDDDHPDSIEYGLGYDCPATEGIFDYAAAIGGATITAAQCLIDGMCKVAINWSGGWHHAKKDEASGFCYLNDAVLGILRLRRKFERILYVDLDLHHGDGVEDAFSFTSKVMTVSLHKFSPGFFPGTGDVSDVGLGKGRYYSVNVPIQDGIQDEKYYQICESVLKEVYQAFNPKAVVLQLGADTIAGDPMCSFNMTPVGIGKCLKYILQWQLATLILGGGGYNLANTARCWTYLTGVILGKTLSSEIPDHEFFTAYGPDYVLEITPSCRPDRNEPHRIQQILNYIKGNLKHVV
pIC50: −log10 of the molar value.
outcome measure: pIC50

[[record]]
smiles_data = "O=C(CCCCCC(c1c[nH]c2ccccc12)c1c[nH]c2ccccc12)NO"
experimental_target = "Histone deacetylase 8 (Homo sapiens, UniProt Q9BY41)"
outcome_measure = "pIC50"
recorded_result = 6.62

[[record]]
smiles_data = "O=C(/C=C/c1ccc(C(c2c[nH]c3ccccc23)c2c[nH]c3ccccc23)cc1)NO"
experimental_target = "Histone deacetylase 8 (Homo sapiens, UniProt Q9BY41)"
outcome_measure = "pIC50"
recorded_result = 6.14

[[record]]
smiles_data = "COc1cccc2c(C(CCCCCC(=O)NO)c3c[nH]c4c(OC)cccc34)c[nH]c12"
experimental_target = "Histone deacetylase 8 (Homo sapiens, UniProt Q9BY41)"
outcome_measure = "pIC50"
recorded_result = 6.74


====

test system: HCT-116; assay: Cytotoxicity against human HCT116 cells after 24 hrs by sulforhodamine B assay; assay type: functional, cell-based; details: HCT-116, 24 h
pIC50: −log10 of the molar value.
// values below are reported pIC50
outcome measure: pIC50

[[record]]
smiles_data = "O=C(CCCC(c1c[nH]c2ccccc12)c1c[nH]c2ccccc12)NO"
recorded_result = "< 4.70"

[[record]]
smiles_data = "Cc1[nH]c2ccccc2c1C(c1ccc(/C=C/C(=O)NO)cc1)c1c(C)[nH]c2ccccc12"
recorded_result = "< 4.70"

[[record]]
smiles_data = "CN(O)C(=O)CCCCCC(c1cn(C)c2ccccc12)c1cn(C)c2ccccc12"
recorded_result = "< 4.70"

[[record]]
smiles_data = "CN(O)C(=O)CCCCCC(c1c[nH]c2ccccc12)c1c[nH]c2ccccc12"
recorded_result = "< 4.70"

